Values compiled from paper PMC9226319.

assay: in vivo; settings: male, Sprague Dawley, rat, sc, 16 µmol/kg, plasma concentration, SC 16 µmol/kg, 0.5 h, individual animals
I'd appreciate it if you could supply concentration at 0.5 h values for the items below.
Note: unit µM is implicit; provide only the numeric part.

Could you tell me which concentration at 0.5 h is on file for C=CCN1CC[C@]23c4c5ccc(O)c4O[C@H]2[C@@H](OCCOCCOCCOCCOCCOCCOCCOC)CC[C@@]3(O)[C@H]1C5 [Naloxegol, reference compound] ?
2.47

Repeat for the following compound: C=CCN1CC[C@]23c4c5ccc(O)c4O[C@H]2[C@@H](OCc2cn(CCNCCCCCCOc4cc(OCCCc6c(C)n[nH]c6C)cc(C(=O)O)c4)nn2)CC[C@@]3(O)[C@H]1C5 [AG10-L2-Nal]
4.68

---

I'd appreciate it if you could supply pKi values for the items below.
molecular target: kappa opioid receptor (rat) (Rattus norvegicus); construct: Eurofins Cerep (France); assay: Rat kappa-opioid receptor (agonist radioligand [3H] U 69593) binding assay; conditions: [3H] U 69593 displacement; read-out: binding affinity to kappa-opioid receptor (Ki)
Sequence (P34975 whole entry): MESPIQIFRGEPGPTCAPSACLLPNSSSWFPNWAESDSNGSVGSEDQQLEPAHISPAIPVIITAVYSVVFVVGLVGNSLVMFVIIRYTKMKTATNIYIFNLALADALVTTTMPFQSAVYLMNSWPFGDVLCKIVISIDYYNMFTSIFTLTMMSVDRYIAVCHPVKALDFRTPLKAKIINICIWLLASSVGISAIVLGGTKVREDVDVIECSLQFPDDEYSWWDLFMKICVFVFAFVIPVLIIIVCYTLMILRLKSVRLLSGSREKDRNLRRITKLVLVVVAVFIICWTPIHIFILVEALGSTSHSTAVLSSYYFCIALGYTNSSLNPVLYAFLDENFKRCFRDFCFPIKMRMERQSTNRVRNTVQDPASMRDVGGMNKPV
FYI, pKi means -log10 of a concentration in mol per litre.

Could you tell me which pKi is on file for COc1ccc2c3c1O[C@H]1[C@@H](OCc4cn(CCNCCCCCCOc5cc(OCCCc6c(C)n[nH]c6C)cc(C(=O)O)c5)nn4)CC[C@@]4(O)[C@@H](C2)N(C)CC[C@]314 ?
6.92

Repeat for the following molecule: C=CCN1CC[C@]23c4c5ccc(O)c4O[C@H]2[C@@H](OCc2cn(CCNCCCCCCOc4cc(OCCCc6c(C)n[nH]c6C)cc(C(=O)O)c4)nn2)CC[C@@]3(O)[C@H]1C5
9.92

---

molecular target: purified human TTR (Homo sapiens); assay: Fluorescence polarization (FP) binding assay, ligands to TTR in buffer; details: log [nM] inhibitor 2.194
experimental.endpoint: % Fluorescence polarization (mean) (%)
Note: unit % is implicit; provide only the numeric part.

Could you tell me which % Fluorescence polarization (mean) is on file for C=CCN1CC[C@]23c4c5ccc(O)c4O[C@H]2[C@@H](OCc2cn(CCOCCOCCNCCCCCCOc4cc(OCCCc6c(C)n[nH]c6C)cc(C(=O)O)c4)nn2)CC[C@@]3(O)[C@H]1C5 [AG10-L1-Nal] ?
93.370

Repeat for the following molecule: Cc1n[nH]c(C)c1CCCOc1cc(OCCCCCCN)cc(C(=O)O)c1 [Compound 1]
79.820

Repeat for the following molecule: C=CCN1CC[C@]23c4c5ccc(O)c4O[C@H]2[C@@H](OCc2cn(CCNCCCCCCOc4cc(OCCCc6c(C)n[nH]c6C)cc(C(=O)O)c4)nn2)CC[C@@]3(O)[C@H]1C5 [AG10-L2-Nal]
97.021

Repeat for the following molecule: COc1ccc2c3c1O[C@H]1[C@@H](OCc4cn(CCNCCCCCCOc5cc(OCCCc6c(C)n[nH]c6C)cc(C(=O)O)c5)nn4)CC[C@@]4(O)[C@@H](C2)N(C)CC[C@]314 [AG10-L2-Oxy]
100.060

---

I'd appreciate it if you could supply CL/F values for the items below.
assay: in vivo; conditions: male, Sprague Dawley, rat, sc, 16 umol/kg
Note: unit mL/min/kg is implicit; provide only the numeric part.

Could you tell me which CL/F is on file for C=CCN1CC[C@]23c4c5ccc(O)c4O[C@H]2[C@@H](OCCOCCOCCOCCOCCOCCOCCOC)CC[C@@]3(O)[C@H]1C5 [Naloxegol, reference compound] ?
72.8

Repeat for the following compound: C=CCN1CC[C@]23c4c5ccc(O)c4O[C@H]2C(=O)CC[C@@]3(O)[C@H]1C5 [Naloxone, reference compound]
152

Repeat for the following compound: COc1ccc2c3c1O[C@H]1[C@@H](OCc4cn(CCNCCCCCCOc5cc(OCCCc6c(C)n[nH]c6C)cc(C(=O)O)c5)nn4)CC[C@@]4(O)[C@@H](C2)N(C)CC[C@]314 [AG10-L2-Oxy]
10.3

Repeat for the following compound: C=CCN1CC[C@]23c4c5ccc(O)c4O[C@H]2[C@@H](OCc2cn(CCNCCCCCCOc4cc(OCCCc6c(C)n[nH]c6C)cc(C(=O)O)c4)nn2)CC[C@@]3(O)[C@H]1C5 [AG10-L2-Nal]
15.3

Repeat for the following compound: COc1ccc2c3c1O[C@H]1C(=O)CC[C@@]4(O)[C@@H](C2)N(C)CC[C@]314 [Oxycodone, reference compound]
55.3
